- tgt: IKKβ (Homo sapiens, UniProt O14920)
- Sequence (O14920 whole entry, species assumed): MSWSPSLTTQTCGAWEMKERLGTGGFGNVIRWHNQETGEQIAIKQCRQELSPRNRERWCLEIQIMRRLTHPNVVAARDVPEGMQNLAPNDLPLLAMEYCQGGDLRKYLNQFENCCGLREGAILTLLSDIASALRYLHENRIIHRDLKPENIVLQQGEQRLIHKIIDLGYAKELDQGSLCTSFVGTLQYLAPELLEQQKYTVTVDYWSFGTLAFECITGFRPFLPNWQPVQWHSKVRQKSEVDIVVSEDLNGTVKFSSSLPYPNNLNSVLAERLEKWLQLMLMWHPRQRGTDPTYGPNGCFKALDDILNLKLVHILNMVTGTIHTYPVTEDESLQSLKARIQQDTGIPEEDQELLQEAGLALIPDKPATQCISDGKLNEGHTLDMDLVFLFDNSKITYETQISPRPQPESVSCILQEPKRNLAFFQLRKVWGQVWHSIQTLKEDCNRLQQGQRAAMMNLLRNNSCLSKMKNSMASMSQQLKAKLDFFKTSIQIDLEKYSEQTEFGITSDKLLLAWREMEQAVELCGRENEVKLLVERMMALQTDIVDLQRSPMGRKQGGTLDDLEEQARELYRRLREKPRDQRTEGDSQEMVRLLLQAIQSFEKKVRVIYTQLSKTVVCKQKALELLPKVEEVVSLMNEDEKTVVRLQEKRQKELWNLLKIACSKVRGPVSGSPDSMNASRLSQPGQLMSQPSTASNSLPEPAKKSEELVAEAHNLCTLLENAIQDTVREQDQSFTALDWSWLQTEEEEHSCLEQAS
pIC50: −log10 of the molar value.
endpoint: pIC50

State pIC50 (IKKβ (Homo sapiens, UniProt O14920)) of COc1cc2c(Nc3ccc(Cl)c(Cl)c3F)ncnc2cc1OC[C@@H]1C[C@@H]2CN(C)C[C@@H]2C1 .
< 6.00

----------
- method_description: in vivo
- measurement_parameters: male, dog, po, 100 mg/kg
- Method: The nonclinical Pharmacokinetics (PK) of XL-647 was studied in mice, rats, dogs, and monkeys. Animals were dosed either once or daily over several days, as described in Table 21 and 22 below. A summary of results can also be found in Tables 21 and 22 below. […] Mean tmax values were approximately 4 to 8 hours, and plasma terminal half-lives ranged from 9.41 to 20.9 hours.
endpoint: half-life (h)
Write down the numeric answer in h and omit the unit.

Note half-life for the compound shown: COc1cc2c(Nc3ccc(Cl)c(Cl)c3F)ncnc2cc1OC[C@@H]1C[C@@H]2CN(C)C[C@@H]2C1
10.4

----------
- method_description: in vivo
- measurement_parameters: male, monkey, po, 6 mg/kg
endpoint: Cmax (ng/mL)
Write down the numeric answer in ng/mL and omit the unit.

Note Cmax for the molecule shown: COc1cc2c(Nc3ccc(Cl)c(Cl)c3F)ncnc2cc1OC[C@@H]1C[C@@H]2CN(C)C[C@@H]2C1 [XL-647]
106

----------
- tgt: MAPK1 (Homo sapiens, UniProt P27361)
- Sequence (P27361 whole entry): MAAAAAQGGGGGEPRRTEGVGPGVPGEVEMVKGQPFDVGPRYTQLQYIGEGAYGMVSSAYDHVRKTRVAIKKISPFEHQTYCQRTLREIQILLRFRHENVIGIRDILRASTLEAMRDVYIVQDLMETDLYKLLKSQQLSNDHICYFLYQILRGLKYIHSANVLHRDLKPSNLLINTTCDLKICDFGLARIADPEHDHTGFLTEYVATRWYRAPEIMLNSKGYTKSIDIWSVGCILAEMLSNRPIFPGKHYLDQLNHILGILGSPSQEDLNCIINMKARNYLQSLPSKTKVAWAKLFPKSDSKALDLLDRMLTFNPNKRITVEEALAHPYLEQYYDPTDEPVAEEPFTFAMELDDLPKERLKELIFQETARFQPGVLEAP
endpoint: IC50

State IC50 (MAPK1 (Homo sapiens, UniProt P27361)) of COc1cc2c(Nc3ccc(Cl)c(Cl)c3F)ncnc2cc1OC[C@@H]1C[C@@H]2CN(C)C[C@@H]2C1 .
> 1000 nM

----------
- method_description: in vivo
- measurement_parameters: rat, po, 100 mg/kg
- Experimental: The nonclinical Pharmacokinetics (PK) of XL-647 was studied in mice, rats, dogs, and monkeys. Animals were dosed either once or daily over several days, as described in Table 21 and 22 below. A summary of results can also be found in Tables 21 and 22 below. […] Mean tmax values were approximately 4 to 8 hours, and plasma terminal half-lives ranged from 9.41 to 20.9 hours.
endpoint: Cmax
Returns: string containing the numeric result and its unit.

Note Cmax for the compound shown: COc1cc2c(Nc3ccc(Cl)c(Cl)c3F)ncnc2cc1OC[C@@H]1C[C@@H]2CN(C)C[C@@H]2C1
909 ng/mL

----------
- tgt: c-Met (Homo sapiens, UniProt P08581)
- Sequence (P08581 956-1390 limits assumed): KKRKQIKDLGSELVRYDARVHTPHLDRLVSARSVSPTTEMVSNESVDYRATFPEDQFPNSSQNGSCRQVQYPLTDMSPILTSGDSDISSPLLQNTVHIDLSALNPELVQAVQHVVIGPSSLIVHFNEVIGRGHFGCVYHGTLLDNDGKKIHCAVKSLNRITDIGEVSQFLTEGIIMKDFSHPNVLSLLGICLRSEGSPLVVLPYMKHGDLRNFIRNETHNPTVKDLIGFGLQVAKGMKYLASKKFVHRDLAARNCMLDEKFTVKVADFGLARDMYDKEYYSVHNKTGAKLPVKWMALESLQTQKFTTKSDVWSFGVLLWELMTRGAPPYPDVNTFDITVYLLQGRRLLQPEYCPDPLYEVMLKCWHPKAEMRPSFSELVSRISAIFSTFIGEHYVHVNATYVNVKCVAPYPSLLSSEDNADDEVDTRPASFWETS
endpoint: IC50 (nM)
Write down the numeric answer in nM and omit the unit.

Note IC50 for the molecule shown: COc1cc2c(Nc3ccc(Cl)c(Cl)c3F)ncnc2cc1OC[C@@H]1C[C@@H]2CN(C)C[C@@H]2C1 [XL-647]
332

----------
- method_description: in vivo
- measurement_parameters: rat, po, 100 mg/kg
endpoint: AUC(0-t)
Returns: string containing the numeric result and its unit.

Note AUC(0-t) for the compound shown: COc1cc2c(Nc3ccc(Cl)c(Cl)c3F)ncnc2cc1OC[C@@H]1C[C@@H]2CN(C)C[C@@H]2C1 [XL-647]
18300 ng·h/mL

----------
- method_description: in vivo
- measurement_parameters: female, dog, po, 100 mg/kg
endpoint: AUC(0-t) (ng·h/mL)
Write down the numeric answer in ng·h/mL and omit the unit.

Note AUC(0-t) for the molecule shown: COc1cc2c(Nc3ccc(Cl)c(Cl)c3F)ncnc2cc1OC[C@@H]1C[C@@H]2CN(C)C[C@@H]2C1
21200
